Origin of the recorded values: PubChem BioAssay AID1159580

methodSummary: chemical genetic growth profiling, strain panel (AID 1159580);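 further: tested at 20 µM; growth read once vehicle control cultures reached saturation at 30 °C; 1 = growth at the plate median or of vehicle wells; lower values mean less growth of the strain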
testSettings: S. cerevisiae deletion strains, growth OD, locus YNL067W, strain RPL9B, hits give low values
Out of some 5,500 compounds screened, about 2,000 (36%) were called active. Another 18% or so got no clear call; they are omitted. The list shows a part of the results.
Record form. Attribute: normalized growth. Fill in for each entry.

(Q) For the compound shown here, O=C(CCc1ccc(O)cc1)c1c(O)cc(O)cc1O[C@@H]1O[C@H](CO)[C@@H](O)[C@H](O)[C@H]1O , give the reported normalized growth.
(A) 1.04 (inactive)

(Q) Entry under review: COc1cc(-c2coc3cc(O[C@@H]4O[C@H](CO)[C@@H](O)[C@H](O)[C@H]4O)c(OC)c(O)c3c2=O)cc(O)c1OC . Reported normalized growth?
(A) 0.994 (inactive)

(Q) # get_value(readout='normalized growth', item= COc1ccc2c(=O)ccoc2c1 )
(A) 1.01 (inactive)

(Q) Any idea what normalized growth was measured for COc1c2occc2c(OC)c2c(=O)cc(C)oc12 ?
(A) 0.986 (inactive)

(Q) Entry CC(=O)O[C@H]1CC[C@]2(C)C3CC(=O)[C@]4(C)C(C(C)=O)=CCC4C3CC[C@H]2C1 (stereo partly drawn) has what normalized growth?
(A) 1.02 (inactive)

(Q) Can you look up the measured normalized growth of CC(=O)O[C@H]1CC[C@]2(C)C3CC[C@@]4(C)C(CC5O[C@@]6(CCC(C)CO6)[C@@H](C)C54)C3CC[C@@H]2C1 (stereo partly drawn) for me?
(A) 0.98 (inactive)

(Q) normalized growth for CC(=O)O[C@H]1CC[C@]2(C)C3CC[C@@]4(C)C(CC5O[C@@]6(CCC(C)CO6)[C@@H](C)C54)C3CC[C@H]2C1 (stereo partly drawn) ?
(A) 0.983 (inactive)

(Q) What measured normalized growth goes with CC(=O)OC1CCC2(C)C3CC(=O)C4(C)C(CC5OC6(CCC(C)CO6)[C@@H](C)C54)C3CC[C@H]2C1 (stereo partly drawn) ?
(A) 0.967 (inactive)

====

Please go through the items and note down their normalized growth.
methodSummary: chemical genetic growth profiling, strain panel (AID 1159580);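 further: tested at 20 µM; growth read once vehicle control cultures reached saturation at 30 °C; 1 = growth at the plate median or of vehicle wells; lower values mean less growth of the strain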
testSettings: S. cerevisiae deletion strains, growth OD, locus YBR279W, strain paf1, hits give low values
Among all 5,500 compounds or so, about 2,000 (36%) were called active. Inconclusive results (about 18%) are left out. This is one part of the list.

(Q) Report normalized growth for COc1cc2c(cc1OC)[C@@H]1C(=O)c3ccc4c(c3O[C@@H]1CO2)CC(C(C)C)O4 (stereo partly specified) please.
(A) 0.982 (inactive)

(Q) Please give the measured normalized growth for this compound: COc1cc(-c2oc3cc(O)ccc3c(=O)c2O)ccc1O
(A) 0.853 (active)

(Q) Consider the compound shown here: Cc1onc(-c2c(Cl)cccc2Cl)c1C(=O)N[C@@H]1C(=O)N2[C@@H]1SC(C)(C)[C@@H]2C(=O)O What is its recorded normalized growth?
(A) 0.993 (inactive)

(Q) I would be grateful if you could share the reported normalized growth for CC1(C)S[C@@H]2[C@H](NC(=O)Cc3ccccc3)C(=O)N2[C@H]1C(=O)O .
(A) 1.02 (inactive)

(Q) # lookup: normalized growth of CCN(CC)CCNC(=O)c1cc(Cl)c(N)cc1OC
(A) 0.992 (inactive)

(Q) Query: normalized growth; subject: C=C(C)[C@H]1Cc2c(ccc3c2O[C@@H]2COc4cc(OC)c(OC)cc4[C@@H]2C3=O)O1
(A) 1.06 (inactive)

(Q) Return reported normalized growth; argument: COc1ccc(-c2oc3ccccc3c(=O)c2O)cc1OC
(A) 0.697 (active)

(Q) # normalized growth lookup, item CCC1(CC)C(=O)C=CNC1=O
(A) 1 (inactive)

(Q) Which normalized growth is reported for this compound? NC(=O)N1c2ccccc2C=Cc2ccccc21
(A) 1.02 (inactive)

(Q) Quick one: normalized growth of COc1cccc(OC)c1C(=O)N[C@@H]1C(=O)N2[C@@H]1SC(C)(C)[C@@H]2C(=O)O ?
(A) 1 (inactive)

(Q) Query: normalized growth; subject: Cc1onc(-c2ccccc2Cl)c1C(=O)N[C@@H]1C(=O)N2[C@@H]1SC(C)(C)[C@@H]2C(=O)O
(A) 1 (inactive)
